# protocol: Partition coefficient (logP)
# Format: physicochemical
# condition_context: octanol/water
The class of a record is decided solely by its measured logP; consult lower bin: < 4; middle bin: ≥ 4 and < 5; upper bin: ≥ 5

• COS(=O)(=O)c1cc(C(C)C)c(O)c(C(C)C)c1 = lower bin
• CC(C)c1cc(Br)cc(C(C)C)c1O = upper bin
• CC(C)c1cc(Cl)cc(C(C)C)c1O = upper bin
• CC(C)c1cc(CN(C)C)cc(C(C)C)c1O = lower bin
• CC(C)c1cc(NC(=O)C(F)(F)F)cc(C(C)C)c1O = middle bin
• CC(C)c1cc(C(=O)c2ccccc2)cc(C(C)C)c1O = upper bin
• CC(C)c1cc(NS(C)(=O)=O)cc(C(C)C)c1O = lower bin
• CC(C)c1cc(N(C)C)cc(C(C)C)c1O = middle bin
• CC(C)c1cc(I)cc(C(C)C)c1O = upper bin
• CC(C)c1cc(N)cc(C(C)C)c1O = lower bin
• CC(C)c1cc(C=O)cc(C(C)C)c1O = middle bin
• CC(C)c1cc([N+](=O)[O-])cc(C(C)C)c1O = middle bin
• CC(C)c1cccc(C(C)C)c1O [PROPOFOL] = middle bin

* * *

// reported Max activation per item
# target_or_system: GABA A receptor alpha-1/beta-1/gamma-2 (Homo sapiens) (UniProt P14867+P18507+P18505)
# protocol: Direct activation of chloride currents (percentage of 10 mM GABA response) in Xenopus laevis oocytes expressing human alpha-1-beta-1-gamma-2 GABA-A receptor subunits
# Assay type: functional, cell-based
# condition_context: Oocyte
parameter: Max activation (%)

* CC(C)c1cc(I)cc(C(C)C)c1O | 36
* CC(C)c1cccc(C(C)C)c1O | 38
* CC(C)c1cc(Br)cc(C(C)C)c1O | 34
* CC(C)c1cc(Cl)cc(C(C)C)c1O | 37
* CC(C)c1cc(C(=O)c2ccccc2)cc(C(C)C)c1O | 41

* * *

# target_or_system: GABA-A receptor; anion channel
# protocol: Inhibition of [35S]TBPS binding to GABA-A receptor in rat cerebral cortex.
# Type: tissue-based
pIC50: −log10 of the molar value.
// reported pIC50 per item
parameter: pIC50

• CC(C)c1cc(C(=O)c2ccccc2)cc(C(C)C)c1O = 6.07
• COC(=O)c1cccc(C(C)C)c1O = 4.40
• CC(C)c1cc(I)cc(C(C)C)c1O = 5.92
• CC(C)c1cc(CN(C)C)cc(C(C)C)c1O = 3.13
• CCN(CC)CC(=O)Oc1c(C(C)C)cccc1C(C)C = 4.66
• CC(C)c1cc([N+](=O)[O-])cc(C(C)C)c1O = 5.71

* * *

# System: GABA-A receptor; anion channel
# protocol: In vitro inhibition of [35S]TBPS binding to Gamma-aminobutyric acid A (GABA-A) receptor of rat cerebral cortex (No displacement)
# Assay type: tissue-based
parameter: IC50

* CC(=O)Nc1cc(C(C)C)c(O)c(C(C)C)c1 | Not Active
* CC(C)c1cccc(C(=O)O)c1O | Not Active
* CC(C)c1cccc(C(C)C)c1OC(=O)CN1CCOCC1 | Not Active
* CCCN(CCC)CC(=O)Oc1c(C(C)C)cccc1C(C)C | Not Active
* CC(C)c1cc([N+](C)(C)C)cc(C(C)C)c1O.[I-] | Not Active
